Molecular target: recombinant soluble homotrimeric HA of A/chicken/Vietnam/NCVD-016/08 (H5N1) (Influenza A virus A/chicken/Vietnam/NCVD-016/08 (H5N1))
Experiment: microarray, BCC supernatant IgG, trimeric HA
Conditions: remark: other sources report otherwise
reported_metric: Trimeric HA Binding: RLU
For clarity, give the value followed by its unit.

In: Let me know recorded Trimeric HA Binding: RLU for TCN-547 (5092_F11) (antibody, V domains shown) VH: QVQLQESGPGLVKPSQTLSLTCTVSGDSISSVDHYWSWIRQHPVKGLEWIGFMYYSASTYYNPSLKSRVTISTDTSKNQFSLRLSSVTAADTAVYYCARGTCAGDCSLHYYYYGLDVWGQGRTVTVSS VL: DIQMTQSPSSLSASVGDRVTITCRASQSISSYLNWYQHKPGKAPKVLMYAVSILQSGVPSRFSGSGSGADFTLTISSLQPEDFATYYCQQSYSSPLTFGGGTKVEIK , thanks.
Out: 198 RLU

Each recorded value in this set is attributed to patent US20120207760A1.
